Below, each of the compounds is paired with its reported EC50 value.
# targetOrSystem: C. elegans Slo-1a (Caenorhabditis elegans, UniProt Q95V25)
# Sequence (Q95V25 whole entry): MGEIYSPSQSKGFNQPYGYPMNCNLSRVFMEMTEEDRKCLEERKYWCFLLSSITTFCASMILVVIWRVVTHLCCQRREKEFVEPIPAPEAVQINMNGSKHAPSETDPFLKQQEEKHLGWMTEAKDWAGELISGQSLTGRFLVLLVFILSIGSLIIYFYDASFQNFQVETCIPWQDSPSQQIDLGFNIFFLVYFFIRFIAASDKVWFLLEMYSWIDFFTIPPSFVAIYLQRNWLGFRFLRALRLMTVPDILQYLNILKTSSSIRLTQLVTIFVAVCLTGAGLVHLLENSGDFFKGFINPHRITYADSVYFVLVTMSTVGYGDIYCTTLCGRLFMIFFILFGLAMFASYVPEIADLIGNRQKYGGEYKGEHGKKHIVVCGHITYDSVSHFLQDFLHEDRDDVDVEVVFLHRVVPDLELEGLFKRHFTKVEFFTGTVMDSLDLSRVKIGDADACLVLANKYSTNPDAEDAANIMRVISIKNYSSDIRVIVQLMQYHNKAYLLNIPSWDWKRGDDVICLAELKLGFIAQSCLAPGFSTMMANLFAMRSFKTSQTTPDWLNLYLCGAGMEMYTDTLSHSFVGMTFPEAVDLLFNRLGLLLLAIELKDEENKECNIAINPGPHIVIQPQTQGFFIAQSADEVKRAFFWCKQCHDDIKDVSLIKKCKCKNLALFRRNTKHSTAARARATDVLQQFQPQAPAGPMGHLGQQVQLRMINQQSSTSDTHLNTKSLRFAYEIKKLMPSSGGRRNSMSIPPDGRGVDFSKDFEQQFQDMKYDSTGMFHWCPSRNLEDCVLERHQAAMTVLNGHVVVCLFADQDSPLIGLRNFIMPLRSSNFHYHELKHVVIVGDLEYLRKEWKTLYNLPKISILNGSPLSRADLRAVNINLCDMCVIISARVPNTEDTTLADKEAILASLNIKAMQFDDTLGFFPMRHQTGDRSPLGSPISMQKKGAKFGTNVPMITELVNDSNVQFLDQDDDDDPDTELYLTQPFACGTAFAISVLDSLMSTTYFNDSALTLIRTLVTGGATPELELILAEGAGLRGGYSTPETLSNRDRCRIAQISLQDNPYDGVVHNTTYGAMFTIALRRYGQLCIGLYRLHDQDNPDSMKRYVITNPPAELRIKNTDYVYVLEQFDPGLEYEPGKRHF
# runDescription: Agonistic activity at C. elegans Slo-1a, FLIPR membrane potential in CHO K1 cells
# particulars: EC50 agonistic activity at C. elegans Slo-1a, CHO K1 cells stably transfected with slo-1a, membrane potential dye

# smilesCode, EC50
data = [
    ("O=C(N[C@H]1CCCc2ccccc21)c1cnc(Oc2cccc(Cl)c2Cl)cc1N1CCOCC1", "< 1000 nM"),
    ("O=C(N[C@H]1CCc2ccccc21)c1cnc(Sc2cccc(Cl)c2Cl)cc1N1CCOCC1", "< 1000 nM"),
    ("COc1cc(Sc2cccc(Cl)c2Cl)ncc1C(=O)N[C@H]1CCCc2ccccc21", "< 10000 nM"),
    ("CSc1cc(Oc2cccc(Cl)c2Cl)ncc1C(=O)N[C@H]1CCCc2ccccc21", "< 10000 nM"),
    ("CSc1cc(Oc2cccc(Cl)c2Cl)ncc1C(=O)N[C@H]1CCc2ccccc21", "< 10000 nM"),
    ("CN(C)c1cc(Oc2cc(Cl)cc(Cl)c2)ncc1C(=O)N[C@H]1CCCc2ccccc21", "< 1000 nM"),
    ("O=C(N[C@H]1CCOc2ccccc21)c1cnc(Sc2cc(Cl)cc(Cl)c2)cc1N1CCOCC1", "< 1000 nM"),
    ("CN(C)c1cc(Oc2cc(Cl)cc(Cl)c2)ncc1C(=O)N[C@H]1CCOc2ccccc21", "< 1000 nM"),
]

* * *

# Tested on: Dirofilaria immitis
# runDescription: In vitro assay Dirofilaria immitis L1 (microfilaria), motility
# Format: cell-based
# particulars: 72 h, 3 days incubation, reduction in motility vs DMSO
Below, each of the compounds is paired with its reported EC50 value.

# compound, EC50
rows = [
    ("CN(C)c1cc(Oc2cc(Cl)cc(Cl)c2)ncc1C(=O)Nc1cccc2ccccc12", "< 10 µM"),
    ("O=C(Nc1cccc2ccccc12)c1cnc(Oc2cccc(Cl)c2Cl)cc1N1CCOCC1", "< 10 µM"),
    ("CCOc1cc(Sc2cccc(Cl)c2Cl)ncc1C(=O)N[C@H]1CCc2ccccc21", "< 10 µM"),
    ("COc1cc(Oc2cc(Cl)cc(Cl)c2)ncc1C(=O)N[C@H]1CCCc2ccccc21", "< 10 µM"),
    ("COc1cc(Oc2cccc(Cl)c2Cl)ncc1C(=O)N[C@H]1CCc2ccccc21", "< 10 µM"),
    ("CN(C)c1cc([S+]([O-])c2cc(Cl)cc(Cl)c2)ncc1C(=O)N[C@H]1CCOc2ccccc21 (stereo partly shown)", "< 10 µM"),
    ("O=C(Nc1csc2ccccc12)c1cnc(Oc2cccc(Cl)c2Cl)cc1N1CCOCC1", "< 10 µM"),
    ("COc1cc(Oc2cccc(Cl)c2Cl)ncc1C(=O)N[C@H]1CCCc2ccccc21", "< 10 µM"),
    ("CN(C)c1cc(Sc2cccc(Cl)c2Cl)ncc1C(=O)N[C@@H]1CCOc2ccccc21", "< 10 µM"),
    ("CN(C)c1cc(Oc2cc(Cl)cc(Cl)c2)ncc1C(=O)N[C@@H]1CCOc2ccccc21", "< 10 µM"),
    ("CN(C)c1cc(Oc2cccc(Cl)c2Cl)ncc1C(=O)Nc1cccc2ccccc12", "< 10 µM"),
    ("O=C(N[C@@H]1CCOc2ccccc21)c1cnc(Sc2cccc(Cl)c2Cl)cc1N1CCOCC1", "< 10 µM"),
    ("CN(C)c1cc([S+]([O-])c2cc(Cl)cc(Cl)c2)ncc1C(=O)N[C@H]1CCCc2ccccc21 (stereo partly shown)", "< 10 µM"),
    ("COc1cc(Sc2cc(Cl)cc(Cl)c2)ncc1C(=O)N[C@H]1CCCc2ccccc21", "< 10 µM"),
    ("CN(C)c1cc(Sc2cc(Cl)cc(Cl)c2)ncc1C(=O)N[C@@H]1CCOc2ccccc21", "< 10 µM"),
    ("CN(C)c1cc(S(=O)(=O)c2cc(Cl)cc(Cl)c2)ncc1C(=O)N[C@H]1CCCc2ccccc21", "< 10 µM"),
]

* * *

Below, each of the compounds is paired with its reported EC50 value.
# targetOrSystem: human Maxi K channel (BK channel) (Homo sapiens)
# Sequence (Q12791 1-1178 isoform Q12791-5): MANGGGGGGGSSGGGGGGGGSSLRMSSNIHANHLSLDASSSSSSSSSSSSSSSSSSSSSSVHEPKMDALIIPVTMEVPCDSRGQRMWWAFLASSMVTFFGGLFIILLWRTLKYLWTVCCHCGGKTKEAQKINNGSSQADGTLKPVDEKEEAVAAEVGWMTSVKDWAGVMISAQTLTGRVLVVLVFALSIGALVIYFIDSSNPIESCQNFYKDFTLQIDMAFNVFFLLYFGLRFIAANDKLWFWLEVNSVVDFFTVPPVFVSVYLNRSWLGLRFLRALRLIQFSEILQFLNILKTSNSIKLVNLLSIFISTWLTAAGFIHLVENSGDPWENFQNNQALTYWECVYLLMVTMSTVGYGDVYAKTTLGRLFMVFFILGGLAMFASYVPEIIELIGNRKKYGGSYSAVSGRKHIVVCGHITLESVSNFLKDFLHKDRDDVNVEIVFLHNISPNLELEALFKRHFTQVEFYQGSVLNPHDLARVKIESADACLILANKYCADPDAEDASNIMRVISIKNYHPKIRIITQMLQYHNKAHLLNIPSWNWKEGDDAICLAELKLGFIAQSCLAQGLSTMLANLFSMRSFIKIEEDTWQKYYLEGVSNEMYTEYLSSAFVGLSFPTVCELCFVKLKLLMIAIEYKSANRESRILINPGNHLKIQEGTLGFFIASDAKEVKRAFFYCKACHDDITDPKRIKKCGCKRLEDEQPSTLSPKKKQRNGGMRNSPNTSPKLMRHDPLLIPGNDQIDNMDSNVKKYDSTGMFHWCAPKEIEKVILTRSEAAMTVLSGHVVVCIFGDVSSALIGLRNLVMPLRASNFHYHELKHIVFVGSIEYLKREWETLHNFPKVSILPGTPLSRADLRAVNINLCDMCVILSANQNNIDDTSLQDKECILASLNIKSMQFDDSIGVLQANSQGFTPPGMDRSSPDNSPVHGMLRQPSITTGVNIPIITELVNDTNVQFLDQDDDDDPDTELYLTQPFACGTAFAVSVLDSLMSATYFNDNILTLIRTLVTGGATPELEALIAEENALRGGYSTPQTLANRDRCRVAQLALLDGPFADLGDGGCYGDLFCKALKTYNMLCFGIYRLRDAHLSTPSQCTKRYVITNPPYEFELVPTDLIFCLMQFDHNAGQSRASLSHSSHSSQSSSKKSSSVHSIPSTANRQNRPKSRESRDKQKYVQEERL
# Sequence (Q16558 whole entry partner): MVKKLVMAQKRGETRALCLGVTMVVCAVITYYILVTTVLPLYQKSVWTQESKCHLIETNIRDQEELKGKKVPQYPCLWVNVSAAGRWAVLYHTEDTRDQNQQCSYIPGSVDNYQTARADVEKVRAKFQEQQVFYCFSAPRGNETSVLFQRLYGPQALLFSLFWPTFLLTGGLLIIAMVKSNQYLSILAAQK
# runDescription: Agonistic activity at the human Maxi K channel (BK channel), FLIPR membrane potential in CHO K1 cells
# particulars: CHO K1 cells stably transfected with KCNMA1 and beta1 (KCNMB1) subunits, membrane potential dye
readoutKind: EC50

# compound, observedValue
data = [
    ("O=C(N[C@H]1CCCc2ccccc21)c1cnc(Cc2cc(Cl)cc(Cl)c2)cc1N1CCOCC1", "> 30 µM"),
    ("O=C(N[C@@H]1CCOc2ccccc21)c1cnc(Sc2cccc(Cl)c2Cl)cc1N1CCOCC1", "> 30 µM"),
    ("O=C(N[C@H]1CCCc2ccccc21)c1cnc(Nc2cc(Cl)cc(Cl)c2)cc1N1CCOCC1", "> 30 µM"),
    ("CCOc1cc(Sc2cc(Cl)cc(Cl)c2)ncc1C(=O)N[C@H]1CCCc2ccccc21", "> 30 µM"),
    ("O=C(N[C@H]1CCCc2ccccc21)c1cnc(Sc2cccc(Cl)c2Cl)cc1N1CCOCC1", "> 30 µM"),
    ("CN(C)c1cc([S+]([O-])c2cc(Cl)cc(Cl)c2)ncc1C(=O)N[C@H]1CCCc2ccccc21 (some centres unmarked)", "> 30 µM"),
    ("CCOc1cc(Sc2cc(Cl)cc(Cl)c2)ncc1C(=O)N[C@H]1CCc2ccccc21", "> 30 µM"),
    ("O=C(N[C@H]1CCOc2ccccc21)c1cnc(Sc2cc(Cl)cc(Cl)c2)cc1N1CCOCC1", "> 30 µM"),
]
